Reported values of RLU for individual entries
Target: human TAS2R14 (Homo sapiens)
Construct: expressed in transfected cells; host or cells: HEK293T-Gα16gust44
Sequence (Q9NYV8 whole entry): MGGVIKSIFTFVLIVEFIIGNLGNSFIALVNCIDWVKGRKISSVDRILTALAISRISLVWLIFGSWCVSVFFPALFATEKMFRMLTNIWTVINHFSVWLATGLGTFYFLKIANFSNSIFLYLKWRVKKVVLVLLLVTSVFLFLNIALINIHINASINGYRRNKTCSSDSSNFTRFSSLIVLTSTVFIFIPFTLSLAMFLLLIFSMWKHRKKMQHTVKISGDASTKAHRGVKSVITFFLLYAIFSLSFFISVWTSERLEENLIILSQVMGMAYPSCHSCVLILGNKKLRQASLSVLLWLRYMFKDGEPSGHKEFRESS
Test: Calcium imaging assay (FLIPR), HEK293T-Gα16gust44 cells transfected with human TAS2R14
Type: cell-based
Conditions: TAS2R14 trace; Time (s) 94.797 (Chenodeoxycholic Acid 94.781)
endpoint.label: RLU (RLU)

compound	unit.of.measurement	observed.measurement
C[C@H](CCC(=O)NCC(=O)O)[C@H]1CC[C@H]2[C@@H]3[C@H](O)C[C@@H]4C[C@H](O)CC[C@]4(C)[C@H]3C[C@H](O)[C@]12C [Glycocholic Acid, glycocholic acid]	RLU	871.313
C[C@H](CCC(=O)NCCS(=O)(=O)O)[C@H]1CC[C@H]2[C@@H]3[C@H](O)C[C@@H]4C[C@H](O)CC[C@]4(C)[C@H]3C[C@H](O)[C@]12C [Taurocholic Acid, taurocholic acid]	RLU	849.724
C[C@H](CCC(=O)O)[C@H]1CC[C@H]2[C@@H]3[C@H](O)C[C@@H]4C[C@H](O)CC[C@]4(C)[C@H]3CC[C@]12C [Chenodeoxycholic Acid, chenodeoxycholic acid]	RLU	638.53
C[C@H](CCC(=O)NCCS(=O)(=O)O)[C@H]1CC[C@H]2[C@@H]3CC[C@@H]4C[C@H](O)CC[C@]4(C)[C@H]3CC[C@]12C [Taurolithocholic Acid, taurolithocholic acid]	RLU	307.307
C[C@H](CCC(=O)O)[C@H]1CC[C@H]2[C@@H]3[C@H](O)C[C@@H]4C[C@H](O)CC[C@]4(C)[C@H]3C[C@H](O)[C@]12C [Cholic Acid, cholic acid]	RLU	1154.9
